Data credit: PubChem BioAssay AID1259251

- SYSTEM TESTED: Serine/threonine-protein kinase ULK1 (Homo sapiens) (UniProt O75385)
- Sequence (O75385 whole entry, looked up): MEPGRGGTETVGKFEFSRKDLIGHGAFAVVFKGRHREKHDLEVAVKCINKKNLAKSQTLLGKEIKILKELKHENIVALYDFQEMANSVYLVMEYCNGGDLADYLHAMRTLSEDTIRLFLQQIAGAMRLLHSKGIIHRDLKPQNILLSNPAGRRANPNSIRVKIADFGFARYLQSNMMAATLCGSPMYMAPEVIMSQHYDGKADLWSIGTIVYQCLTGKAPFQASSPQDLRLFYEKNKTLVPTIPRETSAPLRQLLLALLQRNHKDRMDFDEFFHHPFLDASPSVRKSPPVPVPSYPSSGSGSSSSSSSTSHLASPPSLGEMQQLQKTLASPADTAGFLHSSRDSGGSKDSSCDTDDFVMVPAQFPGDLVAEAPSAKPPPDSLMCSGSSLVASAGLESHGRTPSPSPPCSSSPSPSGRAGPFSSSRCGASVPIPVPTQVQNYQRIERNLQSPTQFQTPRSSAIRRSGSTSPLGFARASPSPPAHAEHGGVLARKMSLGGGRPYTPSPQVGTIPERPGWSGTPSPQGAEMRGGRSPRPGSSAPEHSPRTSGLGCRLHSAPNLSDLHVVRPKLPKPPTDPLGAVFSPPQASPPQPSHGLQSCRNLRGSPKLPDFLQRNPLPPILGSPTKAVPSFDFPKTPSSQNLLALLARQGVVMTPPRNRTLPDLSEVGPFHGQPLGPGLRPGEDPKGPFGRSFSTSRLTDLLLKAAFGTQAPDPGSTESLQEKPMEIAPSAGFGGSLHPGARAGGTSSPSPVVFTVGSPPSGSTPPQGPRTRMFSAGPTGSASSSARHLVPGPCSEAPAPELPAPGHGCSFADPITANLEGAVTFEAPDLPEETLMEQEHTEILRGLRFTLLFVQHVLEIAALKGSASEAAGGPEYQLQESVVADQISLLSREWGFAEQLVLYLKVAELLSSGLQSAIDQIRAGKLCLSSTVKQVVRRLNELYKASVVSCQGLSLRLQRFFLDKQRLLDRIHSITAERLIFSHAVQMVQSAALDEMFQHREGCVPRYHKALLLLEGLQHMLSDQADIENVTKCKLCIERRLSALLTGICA
- TEST NAME: inhibition of human autophagy kinase ULK1 – biochemical, AlphaScreen, primary screen (AID 1259251);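 also: 0% = median of compound wells and 100% = no enzyme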
- PARTICULARS: AlphaScreen Atg13 phosphorylation by ULK1, luminescence; at 5.96 µM; stronger effect = higher value
Screen size: about 30,000 compounds; about 580 (1.9%) were called active. This is one part of a sample in which actives are shown more often than they occur.
Reported inhibition values for a set of compounds
# number only, unit % dropped from output

Observe how each entry below is paired with its result.
COMPOUND	UNIT OF MEASURE	inhibition
CC(C)NC(=O)c1cccc(NC(=O)Nc2ccc(-c3ccnc(N)n3)cc2)c1	%	1.02
CC(=O)OCc1nc2ccc(-c3ccncc3)cc2[nH]1	%	-6.82
COc1cccc(CN(CCN(C)C)C(=O)c2c3ccc(-c4cn[nH]c4)cc3nn2CC2CC2)c1	%	-4.47
COc1cc2nc(Nc3ccccc3)nc(NCc3cccc(C(F)(F)F)c3)c2cc1OC	%	-26.9
Nc1nc(NCc2cccnc2)nc2c1ncn2-c1ccsc1	%	2.79

Query block: For the compound COCCn1nnnc1C(c1cc2ccc(C)cc2[nH]c1=O)N1CCc2ccccc21 (configuration not stated) , what inhibition is on record?
Result block: -5.34

Query block: Subsequent entry: OCC1CCCN1c1nc2ncnc(NC3CC3)c2[nH]1 (configuration not stated)
Result block: 1.11

Query block: Let us now turn to COCCNc1cc(-c2ccc(F)cc2)nc(C)n1
Result block: 0.77

Query block: Please do the same for COc1cccc(CNC(=O)Nc2ccc(-c3cn[nH]c3)cc2OC2CCC(O)C2)c1 (configuration not stated) as well.
Result block: 2.68

Query block: Now the same for COc1cccc(CNC(=O)Nc2ccc(-c3cn[nH]c3)cc2OC2CCNC2)c1 (configuration not stated)
Result block: 55.8

Query block: Field entry: COc1cc(N2CCOCC2)ccc1Nc1cc(Nc2ccccc2C(N)=O)ccn1
Result block: 7.87

Query block: Next entry: O=C(NCc1nc2ccccc2[nH]1)c1cccc(-c2cccs2)c1
Result block: 1.37

Query block: Follow-up item: O=C(Nc1ccccc1)c1ccc2nc(NCCN3CCOCC3)sc2c1
Result block: 2.47

###

- SYSTEM TESTED: Serine/threonine-protein kinase ULK1 (Homo sapiens) (UniProt O75385)
- TEST NAME: inhibition of human autophagy kinase ULK1 – biochemical, AlphaScreen, primary screen (AID 1259251);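 also: 0% = median of compound wells and 100% = no enzyme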
- PARTICULARS: AlphaScreen Atg13 phosphorylation by ULK1, luminescence; at 5.96 µM
The campaign covered roughly 30,000 compounds. About 580 (1.9%) were called active. Cut-off read from the data, not from the text of the source: active = inhibition above about 43%; inactive = the rest. The entries come from a sample that favours actives as a whole.
# valid calls are TRUE = active, FALSE = inactive; nothing else

Worked set:
COMPOUND	CLASS
c1ccc(CN2CCC(Nc3nc(NCCOc4ccccc4)c4[nH]cnc4n3)CC2)cc1	FALSE
Cn1c(Nc2nc3ccc(C(=O)NCCO)cc3s2)nc2ccccc21	FALSE
COc1ccc(CCNc2nc(-c3ccc(N4CCOCC4)nc3)ncc2C)cc1	FALSE

Query block: Please share the test call associated with COc1cc(Nc2cc(-c3nocc3-c3cnn(C)c3)ccn2)ccc1N1CCOCC1 .
Result block: FALSE

Query block: Query CC(=O)c1cccc(-c2nccc(Nc3ccccc3)n2)c1 next
Result block: FALSE

Query block: What do you get for CCN(CC)C(=O)C1CCCN(c2cccc(C(=O)NCc3nc4ccccc4[nH]3)c2)C1 (centres undefined) ?
Result block: FALSE

Query block: Also O=C(Nc1ccc2[nH]ncc2c1)C1CCN(C(=O)[C@@H](O)c2ccccc2Cl)CC1 ?
Result block: FALSE
